test-summary: NCI Yeast Anticancer Drug Screen. Data for the mec2-1 strain (AID 157)
condition-context: S. cerevisiae mec2-1 strain, at 50.0 µM, hits give high values
This is part of a sample that, as a whole, favours compounds with a hit. Of some 79,000 tested, about 15% had one in any assay.
readout-name: growth inhibition (%)
Give bare numbers, in %.

Field: growth inhibition. Fill in for each record below.
1. CCCCCCCCCCCCCCCCCC(=O)NCCCN(C)C
2. Clc1ccc2c(c1)N(CCCN1CCCC13CCCCC3)c1ccccc1S2
3. CCCCCCCCCCCCCCCCOP(=O)(O)OCC(N)C(=O)O (stereo not given)
4. Cc1ccc([N+]2=NC(c3ccccc3)=NN(c3ccccc3)C2)cc1

Out:
93.8
39.8
98.2
91.8

Field: growth inhibition. Fill in for each record below.
1. CN(C)CCNC(=O)c1cccc2c1Oc1c(cccc1[N+](=O)[O-])O2
2. Oc1ccc2ccccc2c1CCc1c(O)ccc2ccccc12
3. c1ccc2c(c1)sc1c3cnccc3ccc21
4. CC1CC[C@]2(C(=O)O)CCC3(C)C(=CC(=O)C4[C@@]5(C)CCC(=O)C(C)(C)C5CC[C@]43C)[C@@H]2[C@H]1C (stereo not given in full)
5. CCOC(=O)c1ccc(NC(=O)O/N=C(/Cl)C(C)C)cc1
6. CCO/C(C)=C(/C#N)C(N)=S
7. Clc1ccc(NCNC2Nc3ccccc3N2)cc1Cl

Out:
7.85
96.5
47.4
91.5
85.5
35.5
9.15

###

test-summary: NCI Yeast Anticancer Drug Screen. Data for the rad18 strain (AID 177)
condition-context: S. cerevisiae rad18 mutant growth inhibition; at 33.0 µM; hits give high values
Compounds without any hit were thinned out: in the full panel of roughly 79,000, 15% have a hit.
Criterion: growth inhibition meeting or surpassing 30%. Met: Satisfied. Not met: Not satisfied.

Worked cases, answers included:
- CN(C)c1nc(=Nc2cccc(Cl)c2)ss1: Satisfied
- COC(=O)C1=C(C(=O)OC)C(C(=O)OC)C(C(=O)OC)C(C(=O)OC)(C(=O)OC)C(C(=O)OC)=C1C(=O)OC (stereo not given): Not satisfied
- O=C(NCCCNCCN1C(=O)c2cccc3cc([N+](=O)[O-])cc(c23)C1=O)c1cc(-c2ccccc2)nc2ccccc12: Not satisfied
- CCOC1=C/C(=N\Nc2ccc([N+](=O)[O-])cc2)CCC1: Satisfied

In: growth inhibition >= 30% for CCOc1c(N=Nc2ccccc2OC)c(C)nn1C(=S)S ?
Out: Satisfied

###

test-summary: NCI Yeast Anticancer Drug Screen. Data for the CLN2oe strain (AID 163);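 further: 0% = growth of vehicle-only control cultures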
condition-context: S. cerevisiae CLN2oe strain, at 33.0 µM
About 79,000 compounds went through this panel and 15% of them were active in at least one assay; those are over-represented in the sample as a whole. Calls of active or inactive are those of the source. Rule as the data show it: active = growth inhibition above about 70%; inactive = the rest.
Respond only with the outcome that fits, drawn from true for active, false for inactive

• C#CCN(Cc1ccc2nc(N)[nH]c(=O)c2c1)c1ccc(C(=O)NC(CCC(=O)O)C(=O)O)cc1 (stereo not given) = false
• COc1cc(/C=C2\NC(=O)N(/C=C3\C(=O)Oc4ccccc4C3=O)C2=O)ccc1O = true
• O=C(c1ccc([N+](=O)[O-])cc1)C1N=NCC1c1ccccc1 (stereo not given) = false
• CS(=O)(=O)OCCN(CCOS(C)(=O)=O)c1ccc(C=Nc2ccc(-c3csc(COc4ccccc4)n3)cc2)cc1 = true

In: In this assay, the call recorded for CC(=O)SC(C[N+](=O)[O-])c1ccccc1 (stereo not given) was what?
Out: true

In: In this assay, the call recorded for CCCCCCCCCCCC1=NCCO1 was what?
Out: false

In: In this assay, the call recorded for O=C(NCCCNCCN1C(=O)c2cccc3cc([N+](=O)[O-])cc(c23)C1=O)c1cc(-c2ccccc2)nc2ccccc12 was what?
Out: false

In: In this assay, the call recorded for c1ccc(CCN2CCc3ccccc3C2)cc1 was what?
Out: false

In: In this assay, the call recorded for Clc1ccc(NCNC2Nc3ccccc3N2)cc1Cl was what?
Out: true

In: In this assay, the call recorded for CCc1ccc2c(c1)N(CC(C)CN(C)C)c1ccccc1S2 (stereo not given) was what?
Out: false
